Property: half-life; scope: individual compounds
# assay procedure: In vivo pharmacokinetic study, plasma and brain levels by LC-MS
# Parameters: species or system mice
# experimental parameters: male, C57BL/6, mouse, in vivo, ip, 1 mg/kg
Give just the number in h; leave the unit off.

substance smiles	result unit	numeric value
CN1CCN(C2=Nc3cc(F)ccc3Oc3ccc(C(F)(F)F)cc32)CC1	h	2.3

Query: Given O=C(O)COCCN1CCN(C2=Nc3ccccc3Oc3ccc(Cl)cc32)CC1 , state its recorded half-life.
Result: 2.4

Query: Given OCCN1CCN(C2=Nc3ccccc3Oc3ccc(Cl)cc32)CC1 , state its recorded half-life.
Result: 1.2

Query: Given O=C(O)COCCN1CCN(C2=Nc3ccccc3Oc3ccc(C(F)(F)F)cc32)CC1 , state its recorded half-life.
Result: 3.9

Query: Given OCCOCCN1CCN(C2=Nc3ccccc3Sc3ccc(Cl)cc32)CC1 , state its recorded half-life.
Result: 1.6

Origin of the recorded values: patent US20260258003A1
